method: in vitro
condition_description: human, hela cells, % viability
Listing: viability at 28.5 h, 10 µM of selected compounds
The figure you give is taken to be in %; do not add the unit.

Solved entries:
[
  {
    "compound": "CCOC(=O)N1CCN(Cc2ccc(OCc3nccn3C)cc2)CC1",
    "viability at 28.5 h, 10 µM (%)": 94
  },
  {
    "compound": "Cc1ccc(OCC(=O)N2CCN(C(=O)c3cccs3)CC2)c([N+](=O)[O-])n1",
    "viability at 28.5 h, 10 µM (%)": 94.4
  },
  {
    "compound": "Cc1nc(C)c(C(=O)NCCN2CCCC2=O)s1",
    "viability at 28.5 h, 10 µM (%)": 84.2
  },
  {
    "compound": "Cc1ccc([N+](=O)[O-])cc1S(=O)(=O)n1ccc2c(N3CCNCC3)nccc21 [CBK059068C]",
    "viability at 28.5 h, 10 µM (%)": 96.5
  },
  {
    "compound": "O=C(Cn1ccnc1)NC(c1ccc(Cl)cc1)c1cccnc1 (centres unmarked)",
    "viability at 28.5 h, 10 µM (%)": 99.2
  },
  {
    "compound": "O=C(Nc1nc2ccccc2s1)c1cnccn1",
    "viability at 28.5 h, 10 µM (%)": 83.9
  },
  {
    "compound": "OCCN(Cc1cccnc1)Cc1cccn1-c1ccc(F)cc1F",
    "viability at 28.5 h, 10 µM (%)": 90.4
  },
  {
    "compound": "Cc1cc(C)c(CNC(=O)C2CC(=O)N(Cc3ccccn3)C2)cn1 (centres unmarked)",
    "viability at 28.5 h, 10 µM (%)": 89.8
  }
]

Tell me its viability at 28.5 h, 10 µM given CC(=O)C1=C(O)C(=O)N(CCC(=O)O)C1c1ccccc1 (centres unmarked) as the entry.
84.3

Tell me its viability at 28.5 h, 10 µM given O=c1[nH]c2ncc(-c3cccc(OC(F)(F)F)c3)nc2n1C1CCCCC1 as the entry.
93.6

Tell me its viability at 28.5 h, 10 µM given CC(C)(CNS(=O)(=O)c1ccc(F)cc1)CNS(=O)(=O)c1ccc(F)cc1 as the entry.
111

Tell me its viability at 28.5 h, 10 µM given CN(C(=O)Cn1c(=O)n(C)c2ncccc21)C1CCCCC1 as the entry.
81.5

Tell me its viability at 28.5 h, 10 µM given COc1cc(OC)nc(CC(=O)O)n1 as the entry.
104

Tell me its viability at 28.5 h, 10 µM given COc1ccc(C2(NCc3cn(CC(N)=O)c4ccccc34)CC2)cc1 as the entry.
107

Tell me its viability at 28.5 h, 10 µM given O=C(NCCCN1CCOCC1)/C(=N\O)c1ccccn1 as the entry.
94.1

Tell me its viability at 28.5 h, 10 µM given O=C(C1CCN(S(=O)(=O)c2ccccc2)CC1)N1CCN(Cc2ccc3c(c2)OCO3)CC1 as the entry.
104

Tell me its viability at 28.5 h, 10 µM given O=S1(=O)CCN(Cc2ccc3c(c2)OCCCO3)CC1 as the entry.
101

====

Listing: viability at 28.5 h, 10 µM of selected compounds
method: in vitro
condition_description: human, hela cells, % viability
The figure you give is taken to be in %; do not add the unit.

Tell me its viability at 28.5 h, 10 µM given CCn1cc(S(=O)(=O)NC2(c3ccc(F)cc3)CC2)c(C)n1 as the entry.
92.4

Tell me its viability at 28.5 h, 10 µM given CNC(=S)NCc1nc(-c2ccc(C)cc2)no1 as the entry.
97.3

Tell me its viability at 28.5 h, 10 µM given C[C@H](c1ccccc1)n1c(=O)[nH]c2ncc(-c3cccc(C(=O)NCCN(C)C)c3)nc21 as the entry.
96.5

Tell me its viability at 28.5 h, 10 µM given COC(=O)c1ccc(-c2ccsc2)nc1 as the entry.
116

Tell me its viability at 28.5 h, 10 µM given COc1ccc2cc([C@@H](O)C[C@@H](C)O)c(Cl)nc2c1 as the entry.
104

Tell me its viability at 28.5 h, 10 µM given Cc1nc(C2CCN(C(=O)c3ccncc3)CC2)c2sccn12 as the entry.
99.9

====

method: in vitro
condition_description: human, hela cells, % viability
measurement_label: viability at 28.5 h, 10 µM (%)
The figure you give is taken to be in %; do not add the unit.

Solved entries:
[
  {
    "compound": "CC(C)Cn1cncc1CNC(=O)Nc1ccc2[nH]nnc2c1",
    "measurement_label": "viability at 28.5 h, 10 µM",
    "readout_units": "%",
    "experimental_result": 91.9
  },
  {
    "compound": "Cc1ncsc1CCS(=O)(=O)N1CCOCC1c1cccc(F)c1 (stereo not shown)",
    "measurement_label": "viability at 28.5 h, 10 µM",
    "readout_units": "%",
    "experimental_result": 91
  },
  {
    "compound": "CC(C)n1nnnc1-c1ccccc1NS(=O)(=O)c1cn[nH]c1",
    "measurement_label": "viability at 28.5 h, 10 µM",
    "readout_units": "%",
    "experimental_result": 88.6
  },
  {
    "compound": "FC(F)(F)Oc1ccccc1-c1nnc(NC2CCCCCC2)s1",
    "measurement_label": "viability at 28.5 h, 10 µM",
    "readout_units": "%",
    "experimental_result": 93.8
  },
  {
    "compound": "C=CCN1C(=O)C2(CC(=O)N(CCC3CCCCC3)C2=O)c2ccccc21 (stereo not shown)",
    "measurement_label": "viability at 28.5 h, 10 µM",
    "readout_units": "%",
    "experimental_result": 107
  },
  {
    "compound": "O=C(NC1CCN(c2ncccn2)CC1)c1ccc[nH]c1=S",
    "measurement_label": "viability at 28.5 h, 10 µM",
    "readout_units": "%",
    "experimental_result": 83.9
  },
  {
    "compound": "Cc1ccc(Cn2nc(C)c(C(=O)OCc3cc(=O)n4ccccc4n3)c2Cl)cc1",
    "measurement_label": "viability at 28.5 h, 10 µM",
    "readout_units": "%",
    "experimental_result": 85.8
  },
  {
    "compound": "CC(C)c1ccc(N2C(=O)[C@@H]3C[C@@H](NC(=O)c4ccnc(Cl)c4)CCN3C2=O)cc1",
    "measurement_label": "viability at 28.5 h, 10 µM",
    "readout_units": "%",
    "experimental_result": 102
  }
]

Tell me its viability at 28.5 h, 10 µM given CN1CCN(C(=O)c2cc(-c3ccc(C(=O)N4CCOCC4)cc3)cnc2N)CC1 as the entry.
85.6

Tell me its viability at 28.5 h, 10 µM given CC(C)CCNC(=O)N1CCC(C(=O)O)CC1 as the entry.
95.3

Tell me its viability at 28.5 h, 10 µM given CCS(=O)(=O)N1CC=C[C@H]1C(=O)NCCc1ccccc1 as the entry.
107

Tell me its viability at 28.5 h, 10 µM given O=C1CC(=O)N(Cc2ccccc2)C(=O)N1 as the entry.
91.7

Tell me its viability at 28.5 h, 10 µM given CC(NC(=O)/C(=C\c1ccc(Cl)cc1)NC(=O)c1ccccc1Br)C(=O)O (stereo not shown) as the entry.
91.4

Tell me its viability at 28.5 h, 10 µM given O=C(O)c1cc(S(=O)(=O)NCCCN2CCOCC2)ccc1Cl as the entry.
96.8

Tell me its viability at 28.5 h, 10 µM given CCOC(=O)c1ccc(N2C(=O)CC(N3CCN(c4ccc(S(C)(=O)=O)cc4)CC3)C2=O)cc1 (stereo not shown) as the entry.
103

Tell me its viability at 28.5 h, 10 µM given COc1ccc(C(=O)N2CCC3(CCN(C(=O)/C=C/c4ccc5c(c4)OCO5)C3)C2)cc1OC (stereo not shown) as the entry.
96.6

Tell me its viability at 28.5 h, 10 µM given CCOc1cccc(-c2cncc(N[C@H](C)c3ccccc3)n2)c1 as the entry.
103

Tell me its viability at 28.5 h, 10 µM given CC(NC(=O)Nc1ccccc1O)(C(F)(F)F)C(F)(F)F as the entry.
101

Tell me its viability at 28.5 h, 10 µM given Cc1sc2ncn(Cc3c(Cl)cccc3Cl)c(=O)c2c1C as the entry.
78.8

====

Listing: viability at 28.5 h, 10 µM of selected molecules
method: in vitro
condition_description: human, hela cells, % viability
The figure you give is taken to be in %; do not add the unit.

[
  {
    "molecule": "Nc1ncc(-c2ccccc2O)nc1-c1ccc(O)cc1",
    "viability at 28.5 h, 10 µM / %": 78.5
  },
  {
    "molecule": "CC(C)NC(=O)N1Cc2nc[nH]c2C[C@H]1c1nc(-c2ccc(F)c(Cl)c2)no1",
    "viability at 28.5 h, 10 µM / %": 86.6
  },
  {
    "molecule": "COc1ncc(-c2nccnc2OCCOc2ccccc2)c(OC)n1",
    "viability at 28.5 h, 10 µM / %": 91.1
  }
]

Tell me its viability at 28.5 h, 10 µM given CC(C)C(=O)N1CC(C)N(CCCC(c2ccc(F)cc2)c2ccc(F)cc2)CC1C (stereo not shown) [CBK024961C] as the entry.
97.6

Tell me its viability at 28.5 h, 10 µM given CCN(C)C(=O)c1cn2cc(-c3cc(C)oc3C)n(C)c(=O)c2n1 as the entry.
94.9

Tell me its viability at 28.5 h, 10 µM given CCC(C)c1ccc(OCC(=O)Nc2ccc3[nH]c(=O)[nH]c3c2)cc1 (stereo not shown) as the entry.
105

Tell me its viability at 28.5 h, 10 µM given CCCn1c(SCC(=O)c2ccc(CCNC(C)=O)cc2)n[nH]c1=O as the entry.
92.1

Tell me its viability at 28.5 h, 10 µM given OCCN(Cc1ccccc1)Cc1ccc(Cl)c(Cl)c1 as the entry.
117

Tell me its viability at 28.5 h, 10 µM given O=C(CNS(=O)(=O)c1ccc(Cl)c(Cl)c1Cl)N1CCOCC1 as the entry.
110

Tell me its viability at 28.5 h, 10 µM given O=c1[nH]ccn1CCNc1ccc(-c2cccc3cccnc23)cn1 as the entry.
79.2

Tell me its viability at 28.5 h, 10 µM given C=CCn1c(Cc2csc(NC(=O)c3cc4ccccc4o3)n2)n[nH]c1=S as the entry.
104

Tell me its viability at 28.5 h, 10 µM given C=CCn1cc(CN2C[C@@H]3CCCN3C[C@H]2CCSC)c(C)n1 as the entry.
87.6

Tell me its viability at 28.5 h, 10 µM given CCOC(=O)c1c(NC(=O)c2nn3c(C(F)(F)F)cc(-c4cccs4)nc3c2Cl)sc2c1CCCC2 as the entry.
95.1

Tell me its viability at 28.5 h, 10 µM given Cc1cc(OCC(=O)NN2CCN(C)CC2)ccc1[N+](=O)[O-] as the entry.
99.8

Tell me its viability at 28.5 h, 10 µM given CC(C)COc1ccc(-c2nn(-c3ccccc3)cc2CSC(=N)N)cc1 [CBK264278C] as the entry.
0.298

Tell me its viability at 28.5 h, 10 µM given COc1nccnc1OC1CCN(Cc2ccc([N+](=O)[O-])cc2)CC1 as the entry.
105

Tell me its viability at 28.5 h, 10 µM given COc1ccc2cc(Br)ccc2c1CC(=O)Nc1ccccc1[N+](=O)[O-] as the entry.
95.8

Tell me its viability at 28.5 h, 10 µM given Cc1ccc(Cn2c(=N)n(CC(=O)c3ccc(Br)cc3)c3ccccc32)cc1 [CBK262979B] as the entry.
94

Tell me its viability at 28.5 h, 10 µM given CCOC(=O)c1ccnc(-c2cc3ccccc3o2)c1 as the entry.
101
